target: T1, 3A; experiment: flow cytometry on peptide-pulsed T2 cells, scFv 100 nM
T1 construct: also called HLA-A2 / point-mutant NY-ESO peptide 3A complex on T2 cells
experimental endpoint: standardized gMFI
// return a plain number; no unit text

Consider the worked cases shown below.
* NYA-1143 (scFv) scFv: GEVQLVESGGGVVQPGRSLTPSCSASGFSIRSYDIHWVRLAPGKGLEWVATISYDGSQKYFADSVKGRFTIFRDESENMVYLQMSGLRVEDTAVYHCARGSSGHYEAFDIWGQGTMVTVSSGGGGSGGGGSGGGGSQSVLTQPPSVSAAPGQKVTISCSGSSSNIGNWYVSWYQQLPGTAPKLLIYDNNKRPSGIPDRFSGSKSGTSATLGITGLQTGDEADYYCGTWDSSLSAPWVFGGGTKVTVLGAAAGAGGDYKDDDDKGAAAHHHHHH | 10.2
* NYA-0001 (scFv, also called NYA-0001 tag adduct; NY-R119 expressed in a cultured mammalian cell) scFv: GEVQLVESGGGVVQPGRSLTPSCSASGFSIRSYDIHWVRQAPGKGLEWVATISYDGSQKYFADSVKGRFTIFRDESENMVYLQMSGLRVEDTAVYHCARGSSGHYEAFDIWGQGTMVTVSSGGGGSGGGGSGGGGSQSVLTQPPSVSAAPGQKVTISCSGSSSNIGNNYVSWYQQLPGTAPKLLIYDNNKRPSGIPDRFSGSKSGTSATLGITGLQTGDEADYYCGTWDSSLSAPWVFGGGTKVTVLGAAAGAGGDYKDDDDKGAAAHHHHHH | 7.88
* NYA-2143 (scFv) scFv: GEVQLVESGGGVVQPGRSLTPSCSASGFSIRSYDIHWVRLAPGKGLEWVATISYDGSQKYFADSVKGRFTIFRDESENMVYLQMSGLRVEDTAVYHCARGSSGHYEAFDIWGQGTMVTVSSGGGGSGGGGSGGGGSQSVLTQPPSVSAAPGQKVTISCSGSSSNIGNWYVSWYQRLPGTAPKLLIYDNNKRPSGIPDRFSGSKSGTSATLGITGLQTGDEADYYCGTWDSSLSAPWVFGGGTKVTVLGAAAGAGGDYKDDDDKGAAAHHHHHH | 10.3
* NYA-2045 (scFv, also called NYA-2045 tag adduct) scFv: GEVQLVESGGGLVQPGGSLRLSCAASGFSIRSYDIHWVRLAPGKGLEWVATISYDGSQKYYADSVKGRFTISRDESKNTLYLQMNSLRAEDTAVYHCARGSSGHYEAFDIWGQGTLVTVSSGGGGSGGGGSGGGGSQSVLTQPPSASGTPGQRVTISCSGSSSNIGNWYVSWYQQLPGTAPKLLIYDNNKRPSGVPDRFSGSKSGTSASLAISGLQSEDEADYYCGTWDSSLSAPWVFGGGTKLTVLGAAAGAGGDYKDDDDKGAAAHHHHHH | 7.46

Any idea what its standardized gMFI is? The binder is NYA-2048 (scFv, also called NYA-2048 tag adduct) scFv: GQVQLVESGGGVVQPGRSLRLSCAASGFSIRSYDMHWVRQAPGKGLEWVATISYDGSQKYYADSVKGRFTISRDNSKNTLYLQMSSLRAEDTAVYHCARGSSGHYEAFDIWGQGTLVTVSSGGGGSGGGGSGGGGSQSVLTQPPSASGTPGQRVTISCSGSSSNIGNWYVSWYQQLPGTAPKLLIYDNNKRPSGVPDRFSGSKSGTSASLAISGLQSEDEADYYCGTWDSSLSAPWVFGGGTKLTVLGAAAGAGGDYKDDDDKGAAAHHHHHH
4.2

Any idea what its standardized gMFI is? The binder is NYA-2044 (scFv, also called NYA-2044 tag adduct) scFv: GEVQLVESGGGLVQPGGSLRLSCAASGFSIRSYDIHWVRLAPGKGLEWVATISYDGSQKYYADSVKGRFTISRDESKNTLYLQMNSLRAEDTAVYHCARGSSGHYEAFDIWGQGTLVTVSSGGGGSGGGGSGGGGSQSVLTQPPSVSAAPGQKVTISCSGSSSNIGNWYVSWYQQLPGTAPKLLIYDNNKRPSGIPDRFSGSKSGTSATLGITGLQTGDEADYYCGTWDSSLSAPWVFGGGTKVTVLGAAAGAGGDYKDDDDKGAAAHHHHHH
10.9

Any idea what its standardized gMFI is? The binder is NYA-2060 (scFv, also called NYA-2060 tag adduct) scFv: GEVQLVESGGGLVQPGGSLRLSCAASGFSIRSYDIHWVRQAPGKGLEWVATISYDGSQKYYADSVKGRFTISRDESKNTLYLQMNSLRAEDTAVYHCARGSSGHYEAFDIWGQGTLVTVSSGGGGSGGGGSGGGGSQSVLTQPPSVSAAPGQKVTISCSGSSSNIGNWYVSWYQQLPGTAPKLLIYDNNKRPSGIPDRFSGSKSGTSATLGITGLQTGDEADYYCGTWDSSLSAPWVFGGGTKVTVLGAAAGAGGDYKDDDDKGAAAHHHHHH
5.51

Any idea what its standardized gMFI is? The binder is NYA-2027 (scFv) scFv: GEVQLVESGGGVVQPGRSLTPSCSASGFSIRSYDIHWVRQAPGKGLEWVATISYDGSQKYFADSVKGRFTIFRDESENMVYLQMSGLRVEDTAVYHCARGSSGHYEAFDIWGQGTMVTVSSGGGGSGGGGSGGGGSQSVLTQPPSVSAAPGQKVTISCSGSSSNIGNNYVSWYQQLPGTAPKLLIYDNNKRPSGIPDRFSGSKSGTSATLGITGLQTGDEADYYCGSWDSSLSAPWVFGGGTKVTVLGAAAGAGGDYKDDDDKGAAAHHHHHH
9.91

Any idea what its standardized gMFI is? The binder is NYC-0003 (scFv, not shown: small tags and cut ends, also called 3M4E5 scFv; NYC-0003 tag adduct) scFv: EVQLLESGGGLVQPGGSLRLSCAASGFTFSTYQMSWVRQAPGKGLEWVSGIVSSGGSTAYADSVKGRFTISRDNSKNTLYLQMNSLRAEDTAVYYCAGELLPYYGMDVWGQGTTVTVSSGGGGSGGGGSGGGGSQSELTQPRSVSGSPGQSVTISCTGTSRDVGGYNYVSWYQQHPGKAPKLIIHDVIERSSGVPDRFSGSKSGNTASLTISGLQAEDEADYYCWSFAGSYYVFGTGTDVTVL
4.34
